# Test system: Escherichia coli TOP10;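 also: peptides expressed intracellularly from a pBAD plasmid library in pooled LB shake-flask culture, induced with 0.3% L-arabinose, DNA abundance read by NGS, three biological replicates, DESeq2 with apeglm shrinkage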
# Procedure details: shrunken log2 fold change of peptide-encoding DNA abundance (4.5 h post-induction vs induction); higher = less antimicrobial activity (less host growth inhibition)
# Condition details: time post-induction: 4.5 h; library: site-saturation at positions 5, 18, 19, 20
Assign class by shrunken log2 fold change: not lower than -0.2 means Criterion met; lower than -0.2 means Criterion not met.

[[record]]
residues = "RRIRYRPPRLPRPRPRPLDHPRP"
experimental_target = "Escherichia coli TOP10"
qualitative_label = "Criterion met"

[[record]]
residues = "RRIRDRPPRLPRPRPRPGQRPRP"
experimental_target = "Escherichia coli TOP10"
qualitative_label = "Criterion met"

[[record]]
residues = "RRIRCRPPRLPRPRPRPIGAPRP"
experimental_target = "Escherichia coli TOP10"
qualitative_label = "Criterion met"

[[record]]
residues = "RRIRTRPPRLPRPRPRPDNWPRP"
experimental_target = "Escherichia coli TOP10"
qualitative_label = "Criterion not met"

[[record]]
residues = "RRIRTRPPRLPRPRPRPDLWPRP"
experimental_target = "Escherichia coli TOP10"
qualitative_label = "Criterion met"

[[record]]
residues = "RRIRNRPPRLPRPRPRPIHVPRP"
experimental_target = "Escherichia coli TOP10"
qualitative_label = "Criterion not met"

[[record]]
residues = "RRIRPRPPRLPRPRPRPHICPRP"
experimental_target = "Escherichia coli TOP10"
qualitative_label = "Criterion met"


Note: attention shifts to another entry.
Problem: Tell me whether shrunken log2 fold change is at least -0.2 here: RRIRARPPRLPRPRPRPFSMPRP
Result: Criterion not met
